B1: RNA-binding E3 ubiquitin-protein ligase MEX3C, residues 325 to 391; numbered along this chain, Q5U5Q3 (parent)
chain: GQTTVQVRVPYRVVGLVVGPKGATIKRIQQQTHTYIVTPSRDKEPVFEVTGMPENVDRAREEIEMHI

- Variants of: B1
- assay-text: abundance fitness (aPCA) (normalised: wild type 0, dead -1); higher = more abundant; growth selection in yeast, the domain comes from the species named
- reported-conditions: Homo sapiens
measured-metric: abundance fitness
Enter the number alone.

• T38R = -0.403
• N55W = -1.17
• Q30M = -0.377
• M52V = -0.482
• Y35S = 0.15
• V37Q = -0.094
• I25M = -0.571
• T32L = -0.734
• T50L = -0.547
• P45K = -0.42

Could you please provide reported abundance fitness for T32Q ? Thanks!
-0.669
